molecular target: TRKA (Homo sapiens, UniProt P04629); assay: Kinase panel (mobility shift); assay type: biochemical
Sequence (P04629 33-796, species assumed): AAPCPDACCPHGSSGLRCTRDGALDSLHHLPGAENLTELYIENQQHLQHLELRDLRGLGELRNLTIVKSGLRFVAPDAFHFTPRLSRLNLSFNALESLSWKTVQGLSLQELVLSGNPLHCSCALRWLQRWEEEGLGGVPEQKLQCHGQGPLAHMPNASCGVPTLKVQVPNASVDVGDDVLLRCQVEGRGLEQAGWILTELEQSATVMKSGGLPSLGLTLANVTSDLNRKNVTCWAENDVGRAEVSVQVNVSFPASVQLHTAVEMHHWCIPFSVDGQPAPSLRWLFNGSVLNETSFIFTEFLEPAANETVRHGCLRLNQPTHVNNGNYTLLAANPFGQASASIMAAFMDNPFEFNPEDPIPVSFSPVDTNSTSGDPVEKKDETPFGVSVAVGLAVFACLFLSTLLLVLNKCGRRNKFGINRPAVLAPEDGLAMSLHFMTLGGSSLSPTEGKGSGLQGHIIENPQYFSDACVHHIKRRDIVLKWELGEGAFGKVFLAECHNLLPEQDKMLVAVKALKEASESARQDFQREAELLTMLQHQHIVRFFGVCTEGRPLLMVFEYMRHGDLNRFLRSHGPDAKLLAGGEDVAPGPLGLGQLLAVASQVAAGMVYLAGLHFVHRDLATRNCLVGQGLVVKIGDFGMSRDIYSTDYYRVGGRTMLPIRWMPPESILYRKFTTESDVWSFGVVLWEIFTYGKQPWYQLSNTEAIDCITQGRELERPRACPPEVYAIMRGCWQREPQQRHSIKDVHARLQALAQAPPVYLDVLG
QUANTITY: inhibition at 5 µM

Reference set (5 entries):
CNC(=O)c1cc(Oc2ccc(NC(=O)c3nc(S(C)(=O)=O)sc3-c3ccc(F)cc3)cc2F)ccn1 [Compound 13] ... 50 to 79%
CNC(=O)c1ccc(Oc2ccc(NC(=O)c3nc(Cl)oc3-c3ccc(F)cc3)c(F)c2)cn1 [Compound 36] ... < 50%
CNC(=O)c1cc(Oc2ccc(NC(=O)c3nc(NC)sc3-c3ccc(F)cc3F)cc2F)ccn1 [Compound 21] ... 50 to 79%
CNC(=O)c1cc(Oc2ccc(NC(=O)c3nc(SC)oc3-c3ccc(OC)cc3)cc2)ccn1 [Compound 7] ... < 50%
[2H]C([2H])([2H])NC(=O)c1cc(Oc2ccc(NC(=O)c3nc(SC)oc3-c3ccc(F)s3)cc2F)ccn1 [Compound 35] ... < 50%

For each of the items listed, what is its inhibition at 5 µM?
1. CSc1nc(C(=O)Nc2ccc(Oc3cc4cnn(C)c4cc3Br)c(F)c2)c(-c2ccc(F)cc2)o1 [Compound 2]
2. CNC(=O)c1cc(Oc2ccc(NC(=O)c3nc(OCC(F)(F)F)oc3-c3ccc(F)cc3)cc2F)ccn1 [Compound 38]
3. CNC(=O)c1cc(Oc2ccc(NC(=O)c3nc(SC)oc3-c3ccc(Cl)s3)cc2)ccn1 [Compound 5]
4. CNC(=O)c1cc(Oc2c(F)cc(NC(=O)c3nc(NC)sc3-c3ccc(F)cc3)cc2F)ccn1 [Compound 19]
5. CSc1nc(C(=O)Nc2ccc(Oc3ccnc(C(=O)NC4CNC4)c3)c(F)c2)c(-c2ccc(F)cc2)o1 [Compound 29]

["< 50%", "50 to 79%", "< 50%", "50 to 79%", "< 50%"]

For each of the items listed, what is its inhibition at 5 µM?
1. CNC(=O)c1cc(Oc2ccc(NC(=O)c3nc(SC)oc3-c3ccc(F)s3)cc2F)ccn1 [Compound 16]
2. CSc1nc(C(=O)Nc2ccc(Oc3ccnc(C(=O)NC4CNC4)c3)c(F)c2)c(-c2ccc(F)s2)o1 [Compound 27]
3. CNC(=O)c1cc(Oc2ccc(NC(=O)c3nc(OC4CC4)oc3-c3ccc(F)cc3)cc2F)ccn1 [Compound 32]
4. CSc1nc(C(=O)Nc2ccc(Oc3ccnc(C(=O)NC4COC4)c3)c(F)c2)c(-c2ccc(F)cc2)o1 [Compound 31]
5. CSc1nc(C(=O)Nc2ccc(Oc3ccnc(C(=O)NC4COC4)c3)c(F)c2)c(-c2ccc(F)s2)o1 [Compound 28]

< 50%
< 50%
50 to 79%
< 50%
< 50%

====

target: EPH-A8 (Homo sapiens); assay: Kinase panel (mobility shift); type: biochemical
Sequence (P29322 28-1005, species assumed): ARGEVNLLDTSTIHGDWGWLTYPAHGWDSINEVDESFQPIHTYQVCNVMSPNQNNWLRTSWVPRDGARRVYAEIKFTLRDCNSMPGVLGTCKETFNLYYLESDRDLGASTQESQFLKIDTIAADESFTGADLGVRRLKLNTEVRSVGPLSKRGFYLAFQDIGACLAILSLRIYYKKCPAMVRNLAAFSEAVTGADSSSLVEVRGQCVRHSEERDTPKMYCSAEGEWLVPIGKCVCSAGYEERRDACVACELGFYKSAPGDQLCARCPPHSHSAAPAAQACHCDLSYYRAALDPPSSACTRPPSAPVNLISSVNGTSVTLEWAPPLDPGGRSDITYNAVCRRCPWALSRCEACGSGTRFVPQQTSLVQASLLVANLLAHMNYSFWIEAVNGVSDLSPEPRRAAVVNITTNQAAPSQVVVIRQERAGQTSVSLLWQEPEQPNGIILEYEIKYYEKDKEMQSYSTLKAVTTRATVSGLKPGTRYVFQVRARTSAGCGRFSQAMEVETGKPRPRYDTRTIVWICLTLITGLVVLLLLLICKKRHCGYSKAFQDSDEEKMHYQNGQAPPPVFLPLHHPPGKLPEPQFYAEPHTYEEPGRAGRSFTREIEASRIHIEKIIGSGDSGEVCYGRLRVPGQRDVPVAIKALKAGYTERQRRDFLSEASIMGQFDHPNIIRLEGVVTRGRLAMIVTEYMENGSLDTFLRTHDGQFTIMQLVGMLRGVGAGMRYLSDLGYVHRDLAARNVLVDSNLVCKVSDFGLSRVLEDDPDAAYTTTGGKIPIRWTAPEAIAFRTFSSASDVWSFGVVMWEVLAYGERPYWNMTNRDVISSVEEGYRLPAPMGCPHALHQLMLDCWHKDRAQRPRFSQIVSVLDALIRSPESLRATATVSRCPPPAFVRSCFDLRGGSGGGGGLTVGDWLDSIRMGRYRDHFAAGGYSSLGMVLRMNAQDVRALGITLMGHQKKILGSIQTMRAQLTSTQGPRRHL
For each record, write down the corresponding inhibition at 5 µM.

Reference set (8 entries):
CNC(=O)c1cc(Oc2ccc(NC(=O)c3nc(SC)oc3-c3ccc(F)cc3Cl)cc2)ccn1 ... 50 to 79%
CNC(=O)c1cc(Oc2ccc(NC(=O)c3nc(OC4CC4)oc3-c3ccc(F)cc3)cc2F)ccn1 ... 80 to 89%
CNC(=O)c1cc(Oc2ccc(NC(=O)c3nc(OC)oc3-c3ccc(F)c(F)c3)cc2F)ccn1 ... 50 to 79%
CSc1nc(C(=O)Nc2ccc(Oc3ccnc(C(=O)NC4CCN(C)CC4)c3)c(F)c2)c(-c2ccc(F)cc2)o1 ... < 50%
CNC(=O)c1cc(Oc2ccc(NC(=O)c3nc(SC)oc3-c3ccc(F)s3)cc2F)ccn1 ... < 50%
CNC(=O)c1cc(Oc2ccc(NC(=O)c3nc(SC)oc3-c3ccc(F)cc3F)cc2)ccn1 ... 80 to 89%
CSc1nc(C(=O)Nc2ccc(Oc3ccnc(C(=O)NC4COC4)c3)c(F)c2)c(-c2ccc(F)cc2)o1 ... < 50%
CSc1nc(C(=O)Nc2ccc(Oc3ccnc(C(=O)NC4CNC4)c3)c(F)c2)c(-c2ccc(F)cc2)o1 ... 50 to 79%

For each of the items listed, what is its inhibition at 5 µM?
1. CSc1nc(C(=O)Nc2ccc(Oc3ccnc(C(=O)NC4COC4)c3)c(F)c2)c(-c2ccc(F)s2)o1
2. CNC(=O)c1cc(Oc2ccc(NC(=O)c3nc(OC)oc3-c3ccc(F)s3)cc2F)ccn1

< 50%
< 50%

====

Target: HIPK4 (Homo sapiens, UniProt Q8NE63)
Sequence (Q8NE63 1-616): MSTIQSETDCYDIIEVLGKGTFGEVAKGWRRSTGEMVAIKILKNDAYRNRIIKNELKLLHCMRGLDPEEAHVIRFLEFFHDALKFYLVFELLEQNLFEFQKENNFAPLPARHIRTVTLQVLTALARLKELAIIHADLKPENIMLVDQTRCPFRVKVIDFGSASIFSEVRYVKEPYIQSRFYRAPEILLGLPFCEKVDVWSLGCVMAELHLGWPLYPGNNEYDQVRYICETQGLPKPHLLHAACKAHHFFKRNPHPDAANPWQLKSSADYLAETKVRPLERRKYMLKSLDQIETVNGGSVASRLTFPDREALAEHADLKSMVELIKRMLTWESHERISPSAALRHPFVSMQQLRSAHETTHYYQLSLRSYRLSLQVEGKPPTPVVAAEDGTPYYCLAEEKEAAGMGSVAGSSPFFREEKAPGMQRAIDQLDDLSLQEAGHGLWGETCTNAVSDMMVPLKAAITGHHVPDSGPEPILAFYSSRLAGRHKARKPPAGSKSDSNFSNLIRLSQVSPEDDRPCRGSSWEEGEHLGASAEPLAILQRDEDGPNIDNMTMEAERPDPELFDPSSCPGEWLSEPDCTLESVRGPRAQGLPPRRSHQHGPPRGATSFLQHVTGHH
Experiment: Kinase panel (mobility shift)
Type: biochemical
For each record, write down the corresponding inhibition at 5 µM.

For each of the items listed, what is its inhibition at 5 µM?
1. CSc1nc(C(=O)Nc2ccc(Oc3ccnc(C(=O)NC4COC4)c3)c(F)c2)c(-c2ccc(F)cc2)o1 [Compound 31]
2. CSc1nc(C(=O)Nc2ccc(Oc3ccnc(C(=O)NC4CNC4)c3)c(F)c2)c(-c2ccc(F)cc2)o1 [Compound 29]
3. CSc1nc(C(=O)Nc2ccc(Oc3cc4cnn(C)c4cc3Br)c(F)c2)c(-c2ccc(F)cc2)o1 [Compound 2]
4. [2H]C([2H])([2H])NC(=O)c1cc(Oc2ccc(NC(=O)c3nc(SC)oc3-c3ccc(F)s3)cc2F)ccn1 [Compound 35]
5. CNC(=O)c1cc(Oc2ccc(NC(=O)c3nc(SC)oc3-c3ccc(F)s3)cc2F)ccn1 [Compound 16]
6. CSc1nc(C(=O)Nc2ccc(Oc3ccnc(C(=O)NC4COC4)c3)c(F)c2)c(-c2ccc(F)s2)o1 [Compound 28]

["≥ 95%", "≥ 95%", "≥ 95%", "≥ 95%", "≥ 95%", "≥ 95%"]

For each of the items listed, what is its inhibition at 5 µM?
1. CNC(=O)c1cc(Oc2ccc(NC(=O)c3nc(SC)oc3-c3ccc(OC)cc3)cc2)ccn1 [Compound 7]
2. CNC(=O)c1cc(Oc2ccc(NC(=O)c3nc(OC)oc3-c3ccc(F)s3)cc2F)ccn1 [Compound 25]
3. CNC(=O)c1ccc(Oc2ccc(NC(=O)c3nc(Cl)oc3-c3ccc(F)cc3)c(F)c2)cn1 [Compound 36]

1. 90 to 94%
2. ≥ 95%
3. 80 to 89%

====

biological target: SRC (Homo sapiens); assay: Kinase panel (mobility shift); type: biochemical
Sequence (P12931 whole entry, species assumed): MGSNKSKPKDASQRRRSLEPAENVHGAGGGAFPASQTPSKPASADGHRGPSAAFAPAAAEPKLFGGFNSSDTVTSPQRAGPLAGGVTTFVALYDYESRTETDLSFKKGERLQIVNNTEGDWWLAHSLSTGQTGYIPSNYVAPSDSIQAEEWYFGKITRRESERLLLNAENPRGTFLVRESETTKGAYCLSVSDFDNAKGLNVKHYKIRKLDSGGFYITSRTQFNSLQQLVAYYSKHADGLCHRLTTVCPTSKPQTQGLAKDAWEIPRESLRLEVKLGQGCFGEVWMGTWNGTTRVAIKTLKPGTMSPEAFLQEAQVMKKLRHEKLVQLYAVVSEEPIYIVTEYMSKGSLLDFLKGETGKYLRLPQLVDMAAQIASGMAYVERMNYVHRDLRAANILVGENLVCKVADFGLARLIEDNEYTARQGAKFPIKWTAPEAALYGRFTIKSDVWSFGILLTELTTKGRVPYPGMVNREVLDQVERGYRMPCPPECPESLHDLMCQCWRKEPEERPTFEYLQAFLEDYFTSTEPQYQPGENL
QUANTITY: inhibition at 5 µM

Reference set (2 entries):
CNC(=O)c1cc(Oc2ccc(NC(=O)c3nc(OC)oc3-c3ccc(F)cc3)cc2F)ccn1 [Compound 15] ... < 50%
CSc1nc(C(=O)Nc2ccc(Oc3ccnc(C(=O)NC4CNC4)c3)c(F)c2)c(-c2ccc(F)cc2)o1 [Compound 29] ... < 50%

For each of the items listed, what is its inhibition at 5 µM?
1. CNC(=O)c1cc(Oc2ccc(NC(=O)c3nc(C4CC4)oc3-c3ccc(F)cc3)cc2F)ccn1 [Compound 26]
2. CNC(=O)c1cc(Oc2ccc(NC(=O)c3nc(SC)oc3-c3ccc(F)cc3F)cc2F)ccn1 [Compound 12]
3. CNC(=O)c1cc(Oc2ccc(NC(=O)c3nc(SC)oc3-c3ccc(Cl)s3)cc2)ccn1 [Compound 5]

1: 50 to 79%; 2: 50 to 79%; 3: < 50%

====

target: RIPK2 (Homo sapiens, UniProt O43353); assay: Kinase panel (mobility shift); format: biochemical
Sequence (O43353 whole entry, species assumed): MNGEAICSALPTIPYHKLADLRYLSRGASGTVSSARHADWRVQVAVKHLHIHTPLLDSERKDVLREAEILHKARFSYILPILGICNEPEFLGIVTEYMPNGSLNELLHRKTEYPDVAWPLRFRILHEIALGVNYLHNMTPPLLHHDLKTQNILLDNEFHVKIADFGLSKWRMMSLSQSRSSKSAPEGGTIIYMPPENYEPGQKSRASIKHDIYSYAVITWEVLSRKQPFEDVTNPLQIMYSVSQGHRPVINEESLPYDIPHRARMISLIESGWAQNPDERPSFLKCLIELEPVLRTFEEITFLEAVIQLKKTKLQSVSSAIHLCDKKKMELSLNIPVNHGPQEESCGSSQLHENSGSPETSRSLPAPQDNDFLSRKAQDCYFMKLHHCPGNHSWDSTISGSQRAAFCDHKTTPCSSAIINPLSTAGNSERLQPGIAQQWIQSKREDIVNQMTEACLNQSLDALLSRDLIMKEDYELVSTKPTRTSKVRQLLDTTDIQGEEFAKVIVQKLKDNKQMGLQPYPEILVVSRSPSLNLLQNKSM
QUANTITY: inhibition at 5 µM

Reference set (2 entries):
CNC(=O)c1cc(Oc2ccc(NC(=O)c3nc(SC)oc3-c3ccc(Cl)s3)cc2)ccn1 ... 50 to 79%
CSc1nc(C(=O)Nc2ccc(Oc3ccnc(N)c3Cl)c(F)c2)c(-c2ccc(F)cc2)o1 ... < 50%

For each of the items listed, what is its inhibition at 5 µM?
1. CSc1nc(C(=O)Nc2ccc(Oc3cc4cnn(C)c4cc3Br)c(F)c2)c(-c2ccc(F)cc2)o1
2. CNC(=O)c1cc(Oc2ccc(NC(=O)c3nc(C4CC4)oc3-c3ccc(F)cc3)cc2F)ccn1
3. [2H]C([2H])([2H])NC(=O)c1cc(Oc2ccc(NC(=O)c3nc(SC)oc3-c3ccc(F)c(F)c3)cc2F)ccn1

< 50%
80 to 89%
50 to 79%
